Tested on: HeLa Kyoto;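 further: HeLa Kyoto cells synchronized by double thymidine or nocodazole block, proteins quantified by TMT10plex mass spectrometry, three independent biological replicates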
Assay: melting temperature (median over replicates), in situ; higher = more thermally stable
Conditions: cell cycle stage: mitosis
value.kind: melting temperature (°C)
One number for each entry, in °C.

MEANGLGPQGFPELKNDTFLRAAWGEETDYTPVWCMRQAGRYLPEFRETRAAQDFFSTCRSPEACCELTLQPLRRFPLDAAIIFSDILVVPQALGMEVTMVPGKGPSFPEPLREEQDLERLRDPEVVASELGYVFQAITLTRQRLAGRVPLIGFAGAPWTLMTYMVEGGGSSTMAQAKRWLYQRPQASHQLLRILTDALVPYLVGQVVAGAQALQLFESHAGHLGPQLFNKFALPYIRDVAKQVKARLREAGLAPVPMIIFAKDGHFALEELAQAGYEVVGLDWTVAPKKARECVGKTVTLQGNLDPCALYASEEEIGQLVKQMLDDFGPHRYIANLGHGLYPDMDPEHVGAFVDAVHKHSRLLRQN [UROD]
56.7
MAAARHSTLDFMLGAKADGETILKGLQSIFQEQGMAESVHTWQDHGYLATYTNKNGSFANLRIYPHGLVLLDLQSYDGDAQGKEEIDSILNKVEERMKELSQDSTGRVKRLPPIVRGGAIDRYWPTADGRLVEYDIDEVVYDEDSPYQNIKILHSKQFGNILILSGDVNLAESDLAYTRAIMGSGKEDYTGKDVLILGGGDGGILCEIVKLKPKMVTMVEIDQMVIDGCKKYMRKTCGDVLDNLKGDCYQVLIEDCIPVLKRYAKEGREFDYVINDLTAVPISTSPEEDSTWEFLRLILDLSMKVLKQDGKYFTQGNCVNLTEALSLYEEQLGRLYCPVEFSKEIVCVPSYLELWVFYTVWKKAKP [SMS]
56.5
MSQSRHRAEAPPLEREDSGTFSLGKMITAKPGKTPIQVLHEYGMKTKNIPVYECERSDVQIHVPTFTFRVTVGDITCTGEGTSKKLAKHRAAEAAINILKANASICFAVPDPLMPDPSKQPKNQLNPIGSLQELAIHHGWRLPEYTLSQEGGPAHKREYTTICRLESFMETGKGASKKQAKRNAAEKFLAKFSNISPENHISLTNVVGHSLGCTWHSLRNSPGEKINLLKRSLLSIPNTDYIQLLSEIAKEQGFNITYLDIDELSANGQYQCLAELSTSPITVCHGSGISCGNAQSDAAHNALQYLKIIAERK [PRKRA]
50

Each sequence below has a reported value. Please supply its melting temperature.
1. MVRPVRHKKPVNYSQFDHSDSDDDFVSATVPLNKKSRTAPKELKQDKPKPNLNNLRKEEIPVQEKTPKKRLPEGTFSIPASAVPCTKMALDDKLYQRDLEVALALSVKELPTVTTNVQNSQDKSIEKHGSSKIETMNKSPHISNCSVASDYLDLDKITVEDDVGGVQGKRKAASKAAAQQRKILLEGSDGDSANDTEPDFAPGEDSEDDSDFCESEDNDEDFSMRKSKVKEIKKKEVKVKSPVEKKEKKSKSKCNALVTSVDSAPAAVKSESQSLPKKVSLSSDTTRKPLEIRSPSAESKKPKWVPPAASGGSRSSSSPLVVVSVKSPNQSLRLGLSRLARVKPLHPNATST [RAD51AP1]
2. MASGQGPGPPRQECGEPALPSASEEQVAQDTEEVFRSYVFYRHQQEQEAEGVAAPADPEMVTLPLQPSSTMGQVGRQLAIIGDDINRRYDSEFQTMLQHLQPTAENAYEYFTKIATSLFESGINWGRVVALLGFGYRLALHVYQHGLTGFLGQVTRFVVDFMLHHCIARWIAQRGGWVAALNLGNGPILNVLVVLGVVLLGQFVVRRFFKS [BAK1]
3. MSRGPSSAVLPSALGSRKLGPRSLSCLSDLDGGVALEPRACRPPGSPGRAPPPTPAPSGCDPRLRPIILRRARSLPSSPERRQKAAGAPGAACRPGCSQKLRVRFADALGLELAQVKVFNAGDDPSVPLHVLSRLAINSDLCCSSQDLEFTLHCLVPDFPPPVEAADFGERLQRQLVCLERVTCSDLGISGTVRVCNVAFEKQVAVRYTFSGWRSTHEAVARWRGPAGPEGTEDVFTFGFPVPPFLLELGSRVHFAVRYQVAGAEYWDNNDHRDYSLTCRNHALHMPRGECEESWIHFI [PPP1R3D]

1. 58
2. 55.7
3. 50.8

Each sequence below has a reported value. Please supply its melting temperature.
1. MSSRIARALALVVTLLHLTRLALSTCPAACHCPLEAPKCAPGVGLVRDGCGCCKVCAKQLNEDCSKTQPCDHTKGLECNFGASSTALKGICRAQSEGRPCEYNSRIYQNGESFQPNCKHQCTCIDGAVGCIPLCPQELSLPNLGCPNPRLVKVTGQCCEEWVCDEDSIKDPMEDQDGLLGKELGFDASEVELTRNNELIAVGKGSSLKRLPVFGMEPRILYNPLQGQKCIVQTTSWSQCSKTCGTGISTRVTNDNPECRLVKETRICEVRPCGQPVYSSLKKGKKCSKTKKSPEPVRFTYAGCLSVKKYRPKYCGSCVDGRCCTPQLTRTVKMRFRCEDGETFSKNVMMIQSCKCNYNCPHANEAAFPFYRLFNDIHKFRD [CYR61]
2. MALPFRKDLEKYKDLDEDELLGNLSETELKQLETVLDDLDPENALLPAGFRQKNQTSKSTTGPFDREHLLSYLEKEALEHKDREDYVPYTGEKKGKIFIPKQKPVQTFTEEKVSLDPELEEALTSASDTELCDLAAILGMHNLITNTKFCNIMGSSNGVDQEHFSNVVKGEKILPVFDEPPNPTNVEESLKRTKENDAHLVEVNLNNIKNIPIPTLKDFAKALETNTHVKCFSLAATRSNDPVATAFAEMLKVNKTLKSLNVESNFITGVGILALIDALRDNETLAELKIDNQRQQLGTAVELEMAKMLEENTNILKFGYQFTQQGPRTRAANAITKNNDLVRKRRVEGDHQ [TMOD3]
3. MHKAGLLGLCARAWNSVRMASSGMTRRDPLANKVALVTASTDGIGFAIARRLAQDGAHVVVSSRKQQNVDQAVATLQGEGLSVTGTVCHVGKAEDRERLVATAVKLHGGIDILVSNAAVNPFFGSIMDVTEEVWDKTLDINVKAPALMTKAVVPEMEKRGGGSVVIVSSIAAFSPSPGFSPYNVSKTALLGLTKTLAIELAPRNIRVNCLAPGLIKTSFSRMLWMDKEKEESMKETLRIRRLGEPEDCAGIVSFLCSEDASYITGETVVVGGGTPSRL [DHRS4]

54.1
50.5
53.5
